src = patent US4977268A

Item-by-item account of ED50 Cytotoxicity P-388 Lymphocytic Leukemia
test system: P-388 lymphocytic leukemia; assay: Cytotoxic assay, P-388 lymphocytic leukemia cell line; assay type: cell-based; details: dosage required to kill 50 percent of the tumor cells in cell culture
State the answer as a number, implicitly in µg/mL.

COC(=O)CNC(=O)[BH2-][N+](C)(C)C [Compound 7] | 12.11
CSCCC(NC(=O)[BH2-][NH3+])C(N)=O (stereo not shown) [Compound 3] | 8.57
O=c1[nH]cc(F)c(=O)[nH]1 [5-Fluorouracil, reference compound] | 3.72
COC(=O)[C@H](CO)NC(=O)[BH2-][N+](C)(C)C [Compound 8] | 9.21
NC(=O)C(CO)NC(=O)[BH2-][NH3+] (stereo not shown) [Compound 2, N-[(Ammoniaboryl)carbonyl]serine amide] | 8.73
Sc1ncnc2nc[nH]c12 [6-Mercaptopurine, reference compound] | 4.10
COC(=O)[C@H](Cc1ccccc1)NC(=O)[BH2-][N+](C)(C)C [Compound 13] | 8.89
COC(=O)[C@H](CCSC)NC(=O)[BH2-][N+](C)(C)C [Compound 9] | 12.86

# input Could you tell me which ED50 Cytotoxicity P-388 Lymphocytic Leukemia is on file for Nc1ccn([C@@H]2O[C@H](CO)[C@@H](O)[C@@H]2O)c(=O)n1 [Ara C, reference compound] ?
# output 4.06

# input Could you tell me which ED50 Cytotoxicity P-388 Lymphocytic Leukemia is on file for NC(=O)CNC(=O)[BH2-][NH3+] [Compound 1] ?
# output 7.62

###

test system: Ehrlich ascites carcinoma; assay: Ehrlich ascites carcinoma in vivo screen; set-up: concentration or dose not given beside the values; conditions: CF-1 mice
Mark Fulfilled only when In Vivo % Inhibition of Ehrlich Ascites Carcinoma Growth stays strictly below 80%. Values equal to the cut-off are Not fulfilled.

Use the examples below as a reference point.
NC(=O)CNC(=O)[BH2-][NH3+] [Compound 1] | Fulfilled
Sc1ncnc2nc[nH]c12 [6-Mercaptopurine, reference compound] | Not fulfilled
COC(=O)[C@H](C)NC(=O)[BH2-][N+](C)(C)C [Compound 16] | Not fulfilled
N[C@@H](Cc1ccc(N(CCCl)CCCl)cc1)C(=O)O [Melphalan, reference compound] | Not fulfilled

# ---- query molecule ----
# input Dear reviewer, please state whether COC(=O)[C@H](Cc1ccccc1)NC(=O)[BH2-][N+](C)(C)C [Compound 13] has In Vivo % Inhibition of Ehrlich Ascites Carcinoma Growth strictly beneath 80%.
# output Not fulfilled

###

test system: Ehrlich ascites carcinoma; assay: Ehrlich ascites carcinoma in vivo screen; design: concentration or dose not given beside the values; details: CF-1 mice
Item-by-item account of In Vivo % Inhibition of Ehrlich Ascites Carcinoma Growth
Dear colleague, please send the value followed by its unit.

Past entries and their recorded results:
COC(=O)CNC(=O)[BH2-][N+](C)(C)C [Compound 7] | 89%
CSCCC(NC(=O)[BH2-][NH3+])C(N)=O (centres unmarked) [Compound 3] | 75%
NC(=O)C(CO)NC(=O)[BH2-][NH3+] (centres unmarked) [Compound 2, N-[(Ammoniaboryl)carbonyl]serine amide] | 52%
COC(=O)[C@H](CCSC)NC(=O)[BH2-][N+](C)(C)C [Compound 9] | 41%

# input Could you tell me which In Vivo % Inhibition of Ehrlich Ascites Carcinoma Growth is on file for COC(=O)[C@H](CO)NC(=O)[BH2-][N+](C)(C)C [Compound 8] ?
# output 61%
